System: MOLT-4 leukemia
Experiment: NCI tumour cell line growth inhibition, 48 h
Some compounds, each annotated with its measured TGI.

COMPOUND | TESTED ON | TGI
CCOC(=O)/C(=N/Nc1ccccc1)N1C(=S)C=C(C)NN(C)C1=S | MOLT-4 leukemia | > 100 µM
COc1ccc(/C=C2/SC(Nc3nc(-c4nc(NC5=NC(=O)/C(=C\c6ccc(OC)cc6)S5)sc4C)c(C)s3)=NC2=O)cc1 | MOLT-4 leukemia | > 50 µM
CC1CCC2CC(=O)OC([C@@H]3C(=O)O[C@@H](C4=CCCC4)C4C(C)CCC43)C12 (stereo partly drawn) | MOLT-4 leukemia | > 100 µM
Fc1ccc2c3c([nH]c2c1)CCN(Cc1ccccc1)C3 | MOLT-4 leukemia | 42.5 µM
COC(=O)C1=CC2C=CC(C1C(=O)OC)C1C(C(=O)OC)=C(C(=O)OC)C(C(=O)OC)=C(C(=O)OC)C21OC (stereo not drawn) | MOLT-4 leukemia | > 100 µM
COc1ccccc1/C=C/C1=NN(c2cccc(S(=O)(=O)O)c2)C2(C1)C(Cl)C(=O)N2c1nc2ccccc2s1 (stereo not drawn) | MOLT-4 leukemia | > 100 µM
Cc1ccc2c(=O)cc(-c3ccc4ccccc4c3)[nH]c2n1 | MOLT-4 leukemia | 29.1 µM
CC(=O)C1=C(O)C=C2Oc3c(C(=O)/C=C/c4cc(Cl)cc(Cl)c4)c(O)c(C)c(O)c3[C@]2(C)C1=O | MOLT-4 leukemia | 1.33 µM
CN1CCN(Cc2ccc(NC(=O)c3cncc(C#Cc4cnc(N)c5cccnc45)c3)cc2C(F)(F)F)CC1 | MOLT-4 leukemia | > 50 µM
COc1ccc2c(c1)/C(=C\c1c(Cl)[nH]c3ccccc13)C(=O)N2 | MOLT-4 leukemia | 41 µM
CC(=O)OCC1OC(n2c3c(c(-c4ccc(Cl)cc4)c(C#N)c2=S)CCCC3)C(OC(C)=O)C(OC(C)=O)C1OC(C)=O (stereo not drawn) | MOLT-4 leukemia | > 100 µM
CCc1ccc(COC(=O)C2=C(C)NC(C)=C(C(=O)OCc3ccc(CC)cn3)C2C2=COCCO2)nc1 | MOLT-4 leukemia | 33.6 µM
O=C(O)C1[O][Sb][O]C(C(=O)O)C1O (stereo not drawn) | MOLT-4 leukemia | > 100 µM
COc1cccc(C2SC(N)=Nc3c2c(C)nn3C(=O)Cc2ccccc2)c1 (stereo not drawn) | MOLT-4 leukemia | > 100 µM
COC1OC2COC(C)(C)OC2C(OC(C)=O)C1NC(=O)N(CCCl)N=O (stereo not drawn) | MOLT-4 leukemia | > 100 µM
COc1cc(C2c3cc4c(cc3C(OC(=O)C[n+]3ccccc3)C3COC(=O)C23)OCO4)cc(OC)c1OC (stereo not drawn) | MOLT-4 leukemia | > 100 µM
CN(/N=C/c1ccnc2ccccc12)c1c([N+](=O)[O-])cc([N+](=O)[O-])cc1[N+](=O)[O-] | MOLT-4 leukemia | > 100 µM
COc1cccc(/C=C2\S/C(=N/Nc3nc(C)c(C)s3)NC2=O)c1O | MOLT-4 leukemia | > 100 µM

Ref: PubChem BioAssay (NCI)
